Target: T1, CCL5_HUMAN (human, UniProt P13501 24-91)
T1 construct: Biotinylated (detected with streptavidin-Alexa647) in yeast display; AlexaFluor 647 labelled (Almac) in thermophoresis
T1 sequence: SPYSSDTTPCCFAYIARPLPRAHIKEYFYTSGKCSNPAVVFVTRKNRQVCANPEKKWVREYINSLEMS
Assay: yeast surface display FACS re-test, >3 fold MFI over control (col D);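 also: yeast displaying putative tick Evasins stained with biotinylated human chemokine plus streptavidin-Alexa647, flow cytometry, positive when MFI exceeds 3-fold the empty-vector or no-chemokine background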
parameterMeasured: binding result

Below, 4 binders whose answers are already recorded.
P1011_AMBTR (other, Tick evasin; also called Evasin) EKDTPKNIPGCEDAGTTAAPPADNPKHYAVYTDKNGCTFKVIGTWMTKEDHRRLPVSLRRVRASSGRVKLPASCQKICKHSVKKFPEGTPCRLVTRDPIKGKNHIKNGCIRGYCSSGVCVSDNRSISCYVLPNNTELTSPSGSFAE ... binds
P1006_AMBCA (other, Tick evasin; also called Evasin) DTIGGIPGCGDPATTSAPEDQPKHYAVRTDKNGCKVMVIGTWMTKEDHNLLPPYISKERAPSGKVQLPASCKKNCHGKLKNLPNGTPCREVFGDLRRRRKHIKDGCKVGKCQNGLCVSEERIISCYLPPNITDPRPTHGPLAE ... binds
P993_AMBPA (other, Tick evasin) HRHYDPNEPCLIAGLKTPRDALPAGCRYDCMIKKNQKLRDGLLCLDVPEKVVKRMVNYLNYSCPLGTCRKGICKRKHRNVRCQKYPVFYMSPPK ... binds
P1030_AMBPA (other, Tick evasin) GPPSIPGNESIPGCGDAGTTTAPEDNPKHYGTLTDKKGCTLPIIGTWMTAVDHQHLQGTRGERRGPTGKVNLPASCRKNCHGRQEILRDGIPCRKVVGNPKGSKKHLKSGCLRGKCLAGQCVNDGRRISCYVPRNITDTEPTPGLLAE ... binds

Now for the binder whose binding result we want.
[Q] May I ask what binding result has been recorded for P1005_AMBMA (other, Tick evasin; also called Evasin) EKDTPKNIPGCGDTGTTAAPPADNPKHFAVYTDKHGCTIKVIGTWMTKEDHSRLPVSLRRVRASSGRVMLPASCQKICNDTVKNFPEGTPCRLVTGDPIKGKNHIKDGCIRGYCSSGVCVSDKRNISCYVPPN ?
[A] binds
